Reported pIC50 values for a set of molecules
- system.name: α4β2 subtype of nicotinic receptors (neuronal nicotinic receptors) (Rattus norvegicus, UniProt P09483+P12390)
- Construct: The forebrain (÷cerebellum) from a male Wistar rat (150-250 g) is homogenized; from tissue; host or cells: rat forebrain (without cerebellum) homogenate (male Wistar)
- Sequence (P09483 31-630): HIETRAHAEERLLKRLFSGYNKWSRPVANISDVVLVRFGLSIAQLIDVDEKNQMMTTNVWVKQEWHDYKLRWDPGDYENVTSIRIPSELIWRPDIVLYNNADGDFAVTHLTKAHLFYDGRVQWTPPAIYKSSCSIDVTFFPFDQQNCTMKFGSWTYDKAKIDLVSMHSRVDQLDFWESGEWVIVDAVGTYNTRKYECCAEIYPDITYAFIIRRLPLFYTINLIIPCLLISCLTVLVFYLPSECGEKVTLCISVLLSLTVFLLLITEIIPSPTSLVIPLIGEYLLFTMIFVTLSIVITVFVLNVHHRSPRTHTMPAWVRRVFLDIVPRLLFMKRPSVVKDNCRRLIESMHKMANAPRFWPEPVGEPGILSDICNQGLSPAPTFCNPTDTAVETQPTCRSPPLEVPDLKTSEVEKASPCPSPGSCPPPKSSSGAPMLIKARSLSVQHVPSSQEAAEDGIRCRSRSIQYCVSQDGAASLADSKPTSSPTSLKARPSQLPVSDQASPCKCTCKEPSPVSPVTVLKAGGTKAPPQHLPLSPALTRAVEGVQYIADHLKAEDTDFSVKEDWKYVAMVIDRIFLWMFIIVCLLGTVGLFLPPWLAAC
- Sequence (P12390 25-500): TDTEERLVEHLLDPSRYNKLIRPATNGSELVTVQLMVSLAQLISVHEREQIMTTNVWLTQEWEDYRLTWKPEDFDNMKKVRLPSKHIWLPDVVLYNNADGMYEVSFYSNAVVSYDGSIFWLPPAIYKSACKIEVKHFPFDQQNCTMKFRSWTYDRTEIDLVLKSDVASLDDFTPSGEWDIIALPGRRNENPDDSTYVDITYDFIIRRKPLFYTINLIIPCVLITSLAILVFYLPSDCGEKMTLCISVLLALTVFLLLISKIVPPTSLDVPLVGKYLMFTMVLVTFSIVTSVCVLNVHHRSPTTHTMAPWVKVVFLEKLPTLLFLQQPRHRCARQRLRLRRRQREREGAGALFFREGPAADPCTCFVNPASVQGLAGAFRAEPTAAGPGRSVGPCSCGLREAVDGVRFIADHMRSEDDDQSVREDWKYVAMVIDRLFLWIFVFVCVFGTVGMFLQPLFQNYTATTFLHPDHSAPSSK
- measurement.notes: In vitro inhibition of 3H-epibatidin binding
- assay.conditions: rat forebrain homogenate, 0.3 nM 3H-epibatidin, 60 min at room temperature; read-out: 3H-epibatidin IC50
// field semantics: pIC50 = negative decimal log of concentration (mol/L)

CN1C2C=C(c3cccc(N)c3)CC1CCC2.O=C(O)/C=C/C(=O)O (racemic) [Compound 1c] : 6.74

Annotate the molecule CN1C2C=C(c3cnc4ccccc4c3)CC1CCC2.O=C(O)/C=C/C(=O)O (racemic) [Compound 6b] with its measured pIC50.
5.08
